Biological target: mouse c-kit (recombinant, on BIAcore chip) (mouse) (UniProt P05532)
Assay: BIAcore
Record form. Attribute: Kd. Fill in for each entry.
Numbers only, in nM.

{"columns": ["binder", "Kd (nM)"],
 "data": [
  ["DOM28m-7 (protein) VH: EVQLLESGGGLVQPGGSLRLSCAASGFTFSNYAMGWVRQAPGKGLEWVSSISSSGFATYYADSVKGRFTISRDNSKNTLYLQMNSLRAEDTAVYYCAKSESRTFKAFDYWGQGTLVTVSS", 3000],
  ["DMS5060 (chimeric MLC mAb-cKIT dAb, DOM28h-094) (bispecific antibody, not shown: a dimerising Fc or GST) heavy (part 1 of 2): QVQLQQSGAELASPGASVKLSCKASGYTFTTYWIHWVKQRPGQGLEWIGAIYPGDGDTRYTQNFKDKATLTADSSSSTAYMQLSSLASEDSAVFYCAREGTPPFTTATFAMAYWGQGTSVTVSS heavy (part 2 of 2): STGEVQLLESGGGLVQPGGSLRLSCAASGFTFFPYAMGWVRQAPGKGLEWVSFISGRGDTTYYADSVKGRFTISRDNSKNTLYLQMNSLRAEDTAVYYCAKTATSDLWNFDYWGQGTLVTVSS light: DIVMSQSPSSLAVSAGDKVTMSCKSSQSLLYSRTRKNYLAWYQQKPGQSPKLLIYWASTRQSGVPDRFTGSGSGTDFTLTISSVQAEDLAVYYCKQSYNLFTFGSGTKLEIKR", 14],
  ["DMS5052 (chimeric MLC mAb-cKIT dAb, DOM28m-007) (bispecific antibody, not shown: a dimerising Fc or GST) heavy (part 1 of 2): QVQLQQSGAELASPGASVKLSCKASGYTFTTYWIHWVKQRPGQGLEWIGAIYPGDGDTRYTQNFKDKATLTADSSSSTAYMQLSSLASEDSAVFYCAREGTPPFTTATFAMAYWGQGTSVTVSS heavy (part 2 of 2): STGEVQLLESGGGLVQPGGSLRLSCAASGFTFSNYAMGWVRQAPGKGLEWVSSISSSGFATYYADSVKGRFTISRDNSKNTLYLQMNSLRAEDTAVYYCAKSESRTFKAFDYWGQGTLVTVSS light: DIVMSQSPSSLAVSAGDKVTMSCKSSQSLLYSRTRKNYLAWYQQKPGQSPKLLIYWASTRQSGVPDRFTGSGSGTDFTLTISSVQAEDLAVYYCKQSYNLFTFGSGTKLEIKR", 80],
  ["DOM28m-73 (protein) EVQLLESGGGLVQPGGSLRLSCAASGFTFKHYSMNWVRQAPGKGLEWVSRISPSGVSTYYADSVKGRFTISRDNSKNTLYLQMNSLRAEDTAVYYCAKIMNSHKADEFDYWGQGTLVTVSS", 9000]
]}

Then this binder:
In one line, give reported Kd of the entry DOM28m-23 (protein) VH: EVRLLESGGGLVQPGGSLRLSCAASGFTFRDYVMVWVRQAPGKGLEWVSAIAPTGGYTYYADSVKGRFTISRDNSKNTLYLQMNSLRAEDTAVYYCAKSLRTWLSEDLPFDYWGQGTLVTVSS .
22000
